From: patent US20130315843A1

Biological target: human TRPV1 (Homo sapiens)
Sequence (Q8NER1 whole entry): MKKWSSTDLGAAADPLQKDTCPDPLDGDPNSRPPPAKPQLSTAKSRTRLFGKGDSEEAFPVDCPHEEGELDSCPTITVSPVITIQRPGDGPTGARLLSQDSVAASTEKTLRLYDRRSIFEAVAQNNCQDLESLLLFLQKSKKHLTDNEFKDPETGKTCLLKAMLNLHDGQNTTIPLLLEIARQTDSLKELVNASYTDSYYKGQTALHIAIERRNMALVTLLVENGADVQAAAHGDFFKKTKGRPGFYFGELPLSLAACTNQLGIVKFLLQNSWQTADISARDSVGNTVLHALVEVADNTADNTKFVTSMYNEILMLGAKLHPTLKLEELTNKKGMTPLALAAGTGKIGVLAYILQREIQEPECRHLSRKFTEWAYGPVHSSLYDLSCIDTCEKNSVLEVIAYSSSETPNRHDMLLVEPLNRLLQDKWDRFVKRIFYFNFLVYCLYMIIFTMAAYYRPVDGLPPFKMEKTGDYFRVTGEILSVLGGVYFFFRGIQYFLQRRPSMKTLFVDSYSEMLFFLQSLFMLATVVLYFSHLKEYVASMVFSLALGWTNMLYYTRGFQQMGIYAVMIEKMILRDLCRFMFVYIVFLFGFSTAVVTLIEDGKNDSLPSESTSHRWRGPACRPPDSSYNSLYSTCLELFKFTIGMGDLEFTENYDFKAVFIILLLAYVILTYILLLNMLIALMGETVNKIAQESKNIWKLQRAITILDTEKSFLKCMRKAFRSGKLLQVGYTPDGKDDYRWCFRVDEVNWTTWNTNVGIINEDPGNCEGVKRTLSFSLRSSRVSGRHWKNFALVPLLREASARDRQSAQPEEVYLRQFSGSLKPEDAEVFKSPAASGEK
Test: FLIPR Ca2+ assay, reduction of L-Menthol activation of TRPV1
Details: read-out: % Reduction of L-Menthol TRPV1 Activation
Threshold rule: inhibition at 100 µM greater than or equal to 40% is TRUE; below that, FALSE.

molecule	class label
O=C(CCc1ccc(O)cc1)c1c(O)cc(O)cc1O [phloretin]	FALSE
CSCCCN=C=S [3-(methylthio)propyl isothiocyanate]	FALSE
CCOC(=O)CC [ethyl propionate]	FALSE
CCC(C)SSC(C)CC (centres unmarked) [sec-butyl disulfide]	FALSE
CC(O)c1ccccc1 (racemic) [(+−)-1-phenylethanol]	TRUE
C1CNCCN1 [piperazine]	TRUE
SCCc1cnccn1 [2-pyrazinylethanethiol]	TRUE
CC(=O)c1cccn1C [2-acetyl-1-methylpyrrole]	FALSE
CCCCCC(=O)OCC(C)C [isobutyl hexanoate]	FALSE
CCCC/C=C\CCO [cis-3-octen-1-ol]	FALSE
CC1OCCC1=O (centres unmarked) [2-methyltetrahydro-3-furanone]	TRUE
COc1ccc(C(C)=O)cc1 [4′-methoxyacetophenone]	FALSE
CCOc1ccc(C=O)cc1 [4-ethoxybenzaldehyde]	FALSE
CCC(O)c1ccccc1 (centres unmarked) [phenylpropanol (1-phenyl 1-propanol), 1-phenyl 1-propanol]	FALSE
CCCOC(C)OCCc1ccccc1 (centres unmarked) [2-(1-propoxyethoxy)ethylbenzene]	FALSE
O=CCc1ccccc1 [phenylacetaldehyde]	TRUE
